System: TK-10 renal
Assay: NCI tumour cell line growth inhibition, 48 h
readout: GI50

Task: // GI50 lookup, key: CCOC(=O)[C]1([Bi]([CH3])[CH3])N=NC(C(=O)OC)=C1C(=O)OC (configuration not stated)
Result: 17.3 µM

Task: Entry to check: "Nc1nc(Cl)c2ncn(Cc3ccc(C45CC6CC(CC(C6)C4)C5)c(O)c3)c2n1"
Result: 2.2 µM

Task: Entry to check: "CCC[CH2][Sn]1([CH2]CCC)[O]Cc2nc(C)ccc2[O]1"
Result: 3.97 µM

Task: Entry to check: "CC/C(=C(/c1ccc(O)cc1)c1ccc(OCCNC)cc1)c1ccccc1"
Result: 2.76 µM

Task: Entry to check: "OCc1c[nH]c2ccccc12"
Result: 44.5 µM

Task: Entry to check: "Oc1ccc2ccccc2c1N=Nc1nccs1"
Result: 8.28 µM

Task: Entry to check: "O=c1/c(=C/c2ccco2)sc2nc3ccccc3n12"
Result: > 10 µM

----------
Test system: A549 NSCLC
Assay: NCI tumour cell line growth inhibition, 48 h
readout: GI50

Task: // GI50 lookup, key: "O=C1Nc2c(C(F)(F)F)cccc2[C@]1(c1ccc(O)cc1)c1ccc(OC(F)(F)F)cc1"
Result: 5.26 µM

Task: Entry to check: "Oc1ccc2ccccc2c1N=Nc1nccs1"
Result: 6.18 µM

Task: Entry to check: "CC/C(=C(/c1ccc(O)cc1)c1ccc(OCCNC)cc1)c1ccccc1"
Result: 1.89 µM

Task: Entry to check: COc1cc([N+](=O)[O-])cc2c3c(n(C)c12)[C@@]1(C)CCC2c4ccc(OCc5ccccc5)cc4CCC2C1C3 (stereo partly drawn)
Result: 72.2 µM

Task: Entry to check: "CCOc1cc2c(Cl)ncnc2c(OCC)c1OCC"
Result: 24.6 µM

Task: Entry to check: "COc1ccc(-c2cnnc3c(-c4cccc(C(F)(F)F)c4)cnn23)cc1"
Result: 4.19 µM

Task: Entry to check: COc1cc(C2NC(=O)c3ccccc3N2)ccc1OCCCCCOc1c(OC)cc(C2=NOC(c3cc(OC)c(OC)c(OC)c3)C2)cc1OC (stereo not drawn)
Result: 2.25 µM

Task: Entry to check: "COC(=O)[C@]12CC[C@@H](C)[C@H](C)[C@@H]1C1=CC[C@@H]3[C@@]4(C)C/C(=N\O)[C@H](O)[C@@]5(C)COC(=C45)C[C@@]3(C)[C@]1(C)CC2"
Result: 10.4 µM

----------
Assign TGI to each entry below.
Test system: SNB-78 CNS
Assay: NCI tumour cell line growth inhibition, 48 h

Task: Given the entry O=C1C2c3[nH]c4ccccc4c3C3CCCCCCC3C2C(=O)N1c1ccccc1 (configuration not stated) , what TGI was observed with SNB-78 CNS?
Result: 32.4 µM

Task: Entry to check: "COC(=O)c1c/c(=N\NC(=O)CC(=O)Nc2ccccc2OC)c2ccccc2o1"
Result: > 100 µM

Task: Entry to check: "CC(C)C(=O)NC(=S)Nc1ccc([N+](=O)[O-])cc1C#N"
Result: > 100 µM

Task: Entry to check: COC1(OC)CCCCC2c3cccc(OC(C)=O)c3C21OC(C)=O (configuration not stated)
Result: > 100 µM

Task: Entry to check: "CCCCN=C(NC#N)NCCCC"
Result: > 100 µM

Task: Entry to check: COC(=O)/C(=N/NC(=O)C[N+](C)(C)C)C(C(=O)OC)C(=O)C(=O)Nc1ccc(F)cc1 (configuration not stated)
Result: > 100 µM

Task: Entry to check: "CCC[CH2][Sn]1([CH2]CCC)[O]Cc2nc(C)ccc2[O]1"
Result: 6.39 µM

Task: Entry to check: "CC[CH2][Sn]([CH2]CC)([O]C(=O)c1cccnc1SC)[O][Sn]([CH2]CC)([CH2]CC)[O]C(=O)c1cccnc1SC"
Result: 1.14 µM

Task: Entry to check: "COc1c(Br)cc(CC(N)=O)c(O)c1Br"
Result: > 100 µM

Task: Entry to check: "COC(=O)CN1CCSC1=NC#N"
Result: > 100 µM

Task: Entry to check: NC(=O)C(=O)N/N=C(\CC1(O)C(=O)Nc2ccccc21)c1ccc2ccccc2c1 (configuration not stated)
Result: > 100 µM

Task: Entry to check: "O=C(CC1=NCCN1)c1ccccc1"
Result: > 750 µM
